- target of assay: Serine/threonine-protein kinase pim-3 (Homo sapiens) (UniProt Q86V86)
- measurement protocol: Inhibition of Pim3 assessed as residual enzyme activity at 10 uM
attribute measured: Activity (%)
Give bare numbers, in %.

compound: c1n[nH]c2cc3nc4c(nc3cc12)CCC4
target of assay: Serine/threonine-protein kinase pim-3 (Homo sapiens) (UniProt Q86V86)
Activity (%): 46.4
--
compound: CCc1nc2cc3cn[nH]c3cc2nc1CC
target of assay: Serine/threonine-protein kinase pim-3 (Homo sapiens) (UniProt Q86V86)
Activity (%): 31
--
compound: CC1(C)[C@H]2CC[C@]1(C)c1nc3cc4[nH]ncc4cc3nc12
target of assay: Serine/threonine-protein kinase pim-3 (Homo sapiens) (UniProt Q86V86)
Activity (%): 43

For each of the compounds below, note its Activity.
1. Nc1cc2cn[nH]c2cc1N
2. c1ccc(C2Cc3nc4cc5cn[nH]c5cc4nc3C2)cc1 (racemic)
3. CC1(C)[C@@H]2CC[C@@]1(C)c1nc3cc4cn[nH]c4cc3nc12
4. CC1Cc2nc3cc4cn[nH]c4cc3nc2C1C (racemic)
5. c1n[nH]c2cc3nc4c(nc3cc12)CCCC4
6. CC1Cc2nc3cc4[nH]ncc4cc3nc2C1C (racemic)

Result:
32
79
37
33
19.7
44
